biological target: 5-hydroxytryptamine receptor 4 (Rattus norvegicus) (UniProt Q62758); experiment: lntrinsic activity relative to 5-HT receptor; type: functional
Sequence (Q62758 whole entry): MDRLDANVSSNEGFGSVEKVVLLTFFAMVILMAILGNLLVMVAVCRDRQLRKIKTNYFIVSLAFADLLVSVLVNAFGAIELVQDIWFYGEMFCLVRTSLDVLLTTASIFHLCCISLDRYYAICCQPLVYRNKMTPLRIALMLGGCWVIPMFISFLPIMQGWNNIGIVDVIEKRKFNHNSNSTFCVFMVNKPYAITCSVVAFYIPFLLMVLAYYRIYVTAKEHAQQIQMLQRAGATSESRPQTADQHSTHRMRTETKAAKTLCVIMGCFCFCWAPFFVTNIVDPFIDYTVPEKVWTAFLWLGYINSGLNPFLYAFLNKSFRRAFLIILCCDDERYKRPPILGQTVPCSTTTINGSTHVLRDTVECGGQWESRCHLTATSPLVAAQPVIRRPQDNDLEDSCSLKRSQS
measurementType: Activity
Give your answer as a number; write no unit.

compound: CN1CCC(N2C(=O)c3cccc4c(N)c(Cl)cc(c34)C2=O)CC1
measurementType: Activity
recordedMeasurement: 0.9

compound: COc1cc(N)c(Cl)cc1C(=O)N[C@H]1CN2CCC1CC2 [(R)ZACOPRIDE]
measurementType: Activity
recordedMeasurement: 0.9

compound: NCCc1c[nH]c2ccc(O)cc12
measurementType: Activity
recordedMeasurement: 1

compound: Nc1c(Cl)cc2c3c(cccc13)C(=O)N([C@@H]1CN3CCC1CC3)C2=O
measurementType: Activity
recordedMeasurement: 0.8

Look up Activity: `COc1cc(N)c(Cl)cc1C(=O)N[C@@H]1CN2CCC1CC2`
0.9

* * *

target: 5-hydroxytryptamine receptor 4 (Rattus norvegicus, UniProt Q62758); assay: 5-hydroxytryptamine 4 receptor agonist activity in the rat esophageal muscularis mucosae
Quick reference for EC50 among some compounds
Output spec: scalar in nM, unitless text.

Answered cases to consult:
compound: CN1CCC(N2C(=O)c3cccc4c(N)c(Cl)cc(c34)C2=O)CC1
measurementUnit: nM
EC50: 31.6

compound: Nc1c(Cl)cc2c3c(cccc13)C(=O)N([C@@H]1CN3CCC1CC3)C2=O
measurementUnit: nM
EC50: 12.6

Which EC50 value is on record for COc1cc(N)c(Cl)cc1C(=O)N[C@H]1CN2CCC1CC2 [(R)ZACOPRIDE] ?
501

// query EC50 value for entry `COc1cc(N)c(Cl)cc1C(=O)N[C@@H]1CN2CCC1CC2`
63.1
